study-system: UniProt P35968
Sequence (P35968 20-1356): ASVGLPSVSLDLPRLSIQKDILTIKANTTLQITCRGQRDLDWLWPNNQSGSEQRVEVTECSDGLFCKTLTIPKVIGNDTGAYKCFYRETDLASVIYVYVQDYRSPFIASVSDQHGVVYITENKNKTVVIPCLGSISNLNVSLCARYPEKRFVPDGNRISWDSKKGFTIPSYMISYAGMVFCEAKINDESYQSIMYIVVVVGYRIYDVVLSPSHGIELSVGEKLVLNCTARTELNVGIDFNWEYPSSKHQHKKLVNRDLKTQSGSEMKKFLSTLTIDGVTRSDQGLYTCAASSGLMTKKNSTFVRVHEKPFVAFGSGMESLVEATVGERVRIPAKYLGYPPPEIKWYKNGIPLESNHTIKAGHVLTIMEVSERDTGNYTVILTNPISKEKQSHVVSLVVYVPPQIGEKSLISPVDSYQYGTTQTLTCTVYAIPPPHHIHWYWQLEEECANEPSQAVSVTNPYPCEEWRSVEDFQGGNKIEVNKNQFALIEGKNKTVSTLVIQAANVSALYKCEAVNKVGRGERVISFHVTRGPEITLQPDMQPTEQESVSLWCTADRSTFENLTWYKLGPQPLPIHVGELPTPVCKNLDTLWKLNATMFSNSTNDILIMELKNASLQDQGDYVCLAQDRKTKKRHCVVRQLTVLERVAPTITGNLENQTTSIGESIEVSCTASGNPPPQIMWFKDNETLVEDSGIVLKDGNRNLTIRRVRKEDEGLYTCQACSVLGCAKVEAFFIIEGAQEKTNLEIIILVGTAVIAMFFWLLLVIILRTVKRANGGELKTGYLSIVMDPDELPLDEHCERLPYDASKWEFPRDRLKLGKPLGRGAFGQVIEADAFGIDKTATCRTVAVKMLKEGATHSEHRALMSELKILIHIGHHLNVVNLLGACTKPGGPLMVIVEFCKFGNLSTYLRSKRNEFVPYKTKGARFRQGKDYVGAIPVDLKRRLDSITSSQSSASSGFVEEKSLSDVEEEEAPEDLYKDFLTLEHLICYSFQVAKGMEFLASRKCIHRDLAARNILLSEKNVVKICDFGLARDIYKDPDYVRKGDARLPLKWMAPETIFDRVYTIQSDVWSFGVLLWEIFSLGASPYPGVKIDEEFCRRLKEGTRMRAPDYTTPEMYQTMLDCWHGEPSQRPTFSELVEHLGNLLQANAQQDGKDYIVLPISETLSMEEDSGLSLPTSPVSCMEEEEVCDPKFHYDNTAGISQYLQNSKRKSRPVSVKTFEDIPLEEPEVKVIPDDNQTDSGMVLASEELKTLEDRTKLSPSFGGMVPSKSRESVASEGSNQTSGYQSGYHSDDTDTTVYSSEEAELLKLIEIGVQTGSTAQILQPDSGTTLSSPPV
test: KDR kinase activity test, [γ-33P]-ATP filter membrane
Format: biochemical
settings: 40 minutes at room temperature, read-out: Kinase-inhibiting activity IC50 KDR (VEGFR2)
Field: pIC50. Provide a value for each of the molecules that follow.
One number for each entry, as −log10 of the molar value.

Solved entries:
- molecule: "COc1cc2c(cn1)C(c1ccccc1Cl)=Nc1c(n[nH]c1C)N2"
  value-measured: 6.06
- molecule: "Cc1[nH]nc2c1N=C(c1ccccc1Cl)c1cnc(OC3CCOC3)cc1N2 (stereo not shown)"
  value-measured: 5.82
- molecule: "Cc1[nH]nc2c1N=C(c1ccccc1Cl)c1cnc(C3CC3)cc1N2"
  value-measured: 6.23

Then this molecule:
Look at this molecule and give its reported pIC50. Cc1[nH]nc2c1N=C(c1ccccc1Cl)c1cnc(S(C)(=O)=O)cc1N2 5.78
